Recorded values, source patent US8513271B2.

GTPγS δ-opioid receptor Rel Efficacy: recorded values
biological target: delta opioid receptor (Mus musculus, UniProt P32300); construct: NG108-15 cell membranes were purchased from Applied Cell Sciences (Rockville, Md.); host or cells: NG108-15 cell membranes; assay: [35S]GTPγS binding assay in NG108-15 cell membranes (delta opioid functional assay), 200 nM screen; format: biochemical; details: relative efficacy from dose response; NG108-15 cell membranes
Sequence (P32300 whole entry): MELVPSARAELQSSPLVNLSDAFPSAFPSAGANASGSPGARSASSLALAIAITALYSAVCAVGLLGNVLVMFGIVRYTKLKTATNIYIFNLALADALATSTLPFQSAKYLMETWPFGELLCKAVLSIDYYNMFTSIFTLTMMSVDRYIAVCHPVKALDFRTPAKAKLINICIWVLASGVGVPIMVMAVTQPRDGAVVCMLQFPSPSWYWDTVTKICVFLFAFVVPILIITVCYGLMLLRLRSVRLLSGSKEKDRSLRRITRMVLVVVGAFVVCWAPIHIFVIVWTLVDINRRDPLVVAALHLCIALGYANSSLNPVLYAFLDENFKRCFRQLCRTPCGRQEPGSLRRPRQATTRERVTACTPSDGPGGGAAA
property-label: GTPγS δ-opioid receptor Rel Efficacy

molecule: Cc1ccc(Oc2nc(-c3cncc(C#N)c3)ncc2NC[C@@H]2CCCN2)cc1 [Cpd 147]
observed-value: 1.077
//
molecule: N#Cc1ccc(Oc2nc(-c3cccnc3)ncc2NC[C@@H]2CCCN2)cc1 [Cpd 136]
observed-value: 0.789
//
molecule: COc1ccc(Oc2nc(-c3cncnc3)ncc2NCC2CNCCO2)cc1 (stereo not drawn) [Cpd 277]
observed-value: 1.012
//
molecule: COc1ccc(Oc2nc(-c3cncc(C#N)c3)ncc2NCC2COCCN2)cc1 (racemic) [Cpd 279]
observed-value: 1.004
//
molecule: N#Cc1cncc(-c2ncc(NC[C@@H]3CCCN3)c(Oc3ccc(Cl)cc3)n2)c1 [Cpd 129]
observed-value: 0.976
//
molecule: COc1ccc(Oc2nc(-c3cncc(C)c3)ncc2N[C@H]2CCCNC2)cc1 [Cpd 259]
observed-value: 1.030
//
molecule: O=C(Nc1ccc(Oc2nc(-c3cncc(F)c3)ncc2NC[C@@H]2CCCN2)cc1)OCc1ccccc1 [Cpd 197]
observed-value: 1.289
//
molecule: c1cncc(-c2ncc(N3CCNCC3)c(Oc3ccc(C4CC4)cc3)n2)c1 [Cpd 320]
observed-value: 0.918
//
molecule: COc1ccc(Oc2nc(-c3cncc(C#N)c3)ncc2N2CCNC[C@@H]2C)cc1 [Cpd 345]
observed-value: 1.089

###

target: delta opioid receptor (Mus musculus); construct: NG108-15 cell membranes were purchased from Applied Cell Sciences (Rockville, Md.); host or cells: NG108-15 cell membranes; experiment: [35S]GTPγS binding assay in NG108-15 cell membranes (delta opioid functional assay), 200 nM screen; assay type: biochemical; conditions: relative efficacy from dose response; NG108-15 cell membranes
property-label: GTPγS δ-opioid receptor Rel Efficacy

compound: COc1ccc(Oc2nc(-c3cncc(OC)c3)ncc2NC[C@@H]2C[C@@H](F)CN2)cc1 [Cpd 235]
observed-value: 0.953
--
compound: Cc1ccccc1Oc1nc(-c2cncc(Cl)c2)ncc1NC[C@@H]1CCCN1 [Cpd 227]
observed-value: 1.093
--
compound: Cc1ccc(Oc2nc(-c3cccnc3)ncc2NC[C@@H]2CCCN2)cc1 [Cpd 149]
observed-value: 1.026
--
compound: COc1ccc(Oc2nc(-c3cccnc3)ncc2N2CCNCC2)cc1 [Cpd 327]
observed-value: 1.037
--
compound: COc1ccc(Oc2nc(-c3cncc(OC)c3)ncc2N[C@H]2CCCNC2)cc1 [Cpd 245]
observed-value: 1.095
--
compound: COc1ccc(Oc2nc(-c3cccnc3)ncc2N2CCNC[C@@H]2C)cc1 [Cpd 354]
observed-value: 1.050
--
compound: COc1ccc(Oc2nc(-c3cccnc3)ncc2N[C@H]2CCC[C@@H](N)C2)cc1 [Cpd 321]
observed-value: 1.022
--
compound: COc1ccc(Oc2nc(-c3cncc(F)c3)ncc2NC[C@@H]2CCCN2)cc1C [Cpd 205]
observed-value: 1.178
--
compound: COc1ccc(Oc2nc(-c3cncc(F)c3)ncc2NC[C@@H]2CCCN2)cc1F [Cpd 131]
observed-value: 1.063
--
compound: CC(C)Oc1ccc(Oc2nc(-c3cncc(C#N)c3)ncc2NC[C@@H]2CCCN2)cc1 [Cpd 139]
observed-value: 1.118
--
compound: COc1ccc(Oc2nc(-c3cncc(C)c3)ncc2NC2CCCC(N)C2)cc1 (centres unmarked) [Cpd 315]
observed-value: 1.019

###

biological target: delta opioid receptor (Mus musculus); construct: NG108-15 cell membranes were purchased from Applied Cell Sciences (Rockville, Md.); host or cells: NG108-15 cell membranes; experiment: [35S]GTPγS binding assay in NG108-15 cell membranes (delta opioid functional assay), 200 nM screen; type: biochemical; conditions: relative efficacy from dose response; NG108-15 cell membranes
Could you please mark 1 for values of GTPγS δ-opioid receptor Rel Efficacy below 1 and 0 for values at or above it?

compound: O=C(Nc1ccc(Oc2nc(-c3cccnc3)ncc2NC[C@@H]2CCCN2)cc1)OCc1ccccc1
class-assignment: 0

compound: COc1ccc(Oc2nc(-c3cc(C)cnc3C)ncc2NC[C@@H]2CCCN2)cc1
class-assignment: 1

compound: COc1ccc(Oc2nc(-c3cncc(C#N)c3)ncc2N2CCNCC2)cc1
class-assignment: 0

compound: FCc1ccc(Oc2nc(-c3cccnc3)ncc2NC[C@@H]2CCCN2)cc1
class-assignment: 1

compound: COc1ccc(Oc2nc(-c3cncc(SC)c3)ncc2NC2CCCC(N)C2)cc1 (single isomer, unassigned) [Cpd 319]
class-assignment: 1

###

molecular target: delta opioid receptor (Mus musculus); construct: NG108-15 cell membranes were purchased from Applied Cell Sciences (Rockville, Md.); host or cells: NG108-15 cell membranes; assay: [35S]GTPγS binding assay in NG108-15 cell membranes (delta opioid functional assay), 200 nM screen; format: biochemical; settings: GTPγS δ-opioid receptor EC50 (μM), NG108-15 cell membranes; averages if tested more than once
Listed here: items and their measured EC50.
property-label: EC50 (µM)

compound: COc1ccc(Oc2nc(-c3cncc(SC)c3)ncc2NC[C@@H]2CCCN2)cc1
target-of-assay: delta opioid receptor (Mus musculus)
scale-unit: µM
observed-value: 0.0213
--
compound: COc1ccc(Oc2nc(-c3cccnc3)ncc2NC2CCCC(N)C2)cc1 (stereo not drawn) [Cpd 306]
target-of-assay: delta opioid receptor (Mus musculus)
scale-unit: µM
observed-value: 0.031
--
compound: COc1ccc(Oc2nc(-c3cncc(SC)c3)ncc2NC2CCCC(N)C2)cc1 (racemic) [Cpd 310]
target-of-assay: delta opioid receptor (Mus musculus)
scale-unit: µM
observed-value: 0.031

###

target: delta opioid receptor (Mus musculus); construct: NG108-15 cell membranes were purchased from Applied Cell Sciences (Rockville, Md.); host or cells: NG108-15 cell membranes; assay: [35S]GTPγS binding assay in NG108-15 cell membranes (delta opioid functional assay), 200 nM screen; assay type: biochemical; details: relative efficacy from dose response; NG108-15 cell membranes
If the reported GTPγS δ-opioid receptor Rel Efficacy equals or exceeds 1, assign t. If not, assign f.

compound: OCc1ccc(Oc2nc(-c3cccnc3)ncc2NC[C@@H]2CCCN2)cc1
class-assignment: t
--
compound: COc1ccc(Oc2nc(-c3cncc(C#N)c3)ncc2N[C@H]2CCCNC2)cc1 [Cpd 199]
class-assignment: t
--
compound: Cc1ccc(Oc2nc(-c3cncc(C#N)c3)ncc2NC[C@@H]2CCCN2)cc1F
class-assignment: t
--
compound: COc1ccc(Oc2nc(-c3cccnc3)ncc2NC[C@@H]2C[C@@H](O)CN2)cc1
class-assignment: f
--
compound: Cc1cncc(-c2ncc(NC[C@@H]3CCCN3)c(Oc3ccc(OCF)cc3)n2)c1
class-assignment: f
--
compound: COc1ccc(Oc2nc(-c3cncc(Cl)c3)ncc2NC[C@@H]2C[C@@H](F)CN2)cc1
class-assignment: t
--
compound: CC[C@@H]1CN(c2cnc(-c3cncc(OC)c3)nc2Oc2ccc(OC)cc2)CCN1
class-assignment: f
--
compound: COc1ccc(Oc2nc(-c3cccnc3)ncc2N[C@@H]2CCC[C@H](N)C2)cc1
class-assignment: f
--
compound: COc1ccc(Oc2nc(-c3cncc(C#N)c3)ncc2N2CCC(N)CC2)cc1
class-assignment: t
--
compound: COc1ccc(Oc2nc(-c3cccnc3)ncc2N[C@H]2CC[C@@H](N)CC2)cc1
class-assignment: t
--
compound: COc1ccc(Oc2nc(-c3cncc(SC)c3)ncc2NC[C@@H]2CCCN2)cc1
class-assignment: f
--
compound: COc1ccc(Oc2nc(-c3cncc(F)c3)ncc2NC[C@@H]2C[C@@H](F)CN2)cc1
class-assignment: t
--
compound: COc1ccc(Oc2nc(-c3cccnc3)ncc2NC[C@@H]2CCCN2)cc1
class-assignment: f
--
compound: CNCCNc1cnc(-c2cccnc2)nc1Oc1ccc(OC)cc1
class-assignment: f

###

biological target: delta opioid receptor (Rattus norvegicus, UniProt P33533); construct: the forebrains were homogenized in Tris buffer in a Teflon®-glass homogenizer; from tissue; host or cells: forebrain of male Wistar rats, particulate (membrane) preparation; assay: Rat brain delta opioid receptor binding assay; details: δ-binding (Naltrindole ligand) Ki, rat forebrain, [3H]naltrindole ligand
Sequence (P33533 whole entry): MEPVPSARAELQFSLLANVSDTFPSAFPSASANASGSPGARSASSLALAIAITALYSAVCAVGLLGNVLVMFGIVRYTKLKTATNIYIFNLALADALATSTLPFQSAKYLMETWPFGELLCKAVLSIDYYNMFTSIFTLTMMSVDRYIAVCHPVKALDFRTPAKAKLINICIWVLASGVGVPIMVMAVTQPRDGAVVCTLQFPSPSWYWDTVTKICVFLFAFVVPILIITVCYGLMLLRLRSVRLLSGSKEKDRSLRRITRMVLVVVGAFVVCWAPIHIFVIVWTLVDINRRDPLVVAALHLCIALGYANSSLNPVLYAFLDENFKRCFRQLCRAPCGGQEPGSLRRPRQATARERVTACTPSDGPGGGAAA
pKi: −log10 of the molar value.
property-label: pKi

compound: COc1ccc(Oc2nc(-c3cncc(C#N)c3)ncc2NC[C@@H]2CCCN2)c(F)c1F [Cpd 101]
observed-value: 8.15
--
compound: COc1ccc(Oc2nc(-c3cccc4cccnc34)ncc2NC[C@@H]2CCCN2)cc1 [Cpd 17]
observed-value: 7.52
--
compound: COc1ccc(Oc2nc(-c3cccnc3F)ncc2NC[C@@H]2CCCN2)cc1 [Cpd 24]
observed-value: 9.00
--
compound: c1ccc(Oc2nc(-c3cccnc3)ncc2NC[C@@H]2CCCN2)cc1 [Cpd 14]
observed-value: 9.00
--
compound: COc1ccc(Oc2nc(-c3ccc4c(c3)OCO4)ncc2NC[C@@H]2CCCN2)cc1 [Cpd 93]
observed-value: 8.10
--
compound: COc1ccc(Oc2nc(-c3cnc(SC)nc3)ncc2NC[C@@H]2CCCN2)cc1 [Cpd 52]
observed-value: 9.40
--
compound: COc1ccc(Oc2nc(-c3cncnc3)ncc2NC[C@@H]2C[C@@H](F)CN2)cc1 [Cpd 80]
observed-value: 8.70
--
compound: COc1ccc(Oc2nc(-c3cncc(OC)c3)ncc2NC[C@@H]2CCCN2)cc1 [Cpd 68]
observed-value: 8.70
--
compound: Cc1nc2ccc(Oc3nc(-c4cncnc4)ncc3NC[C@@H]3CCCN3)cc2s1 [Cpd 91]
observed-value: 7.66
--
compound: COc1ccc(Oc2nc(-c3ccc(O)cc3)ncc2NC[C@@H]2CCCN2)cc1 [Cpd 33]
observed-value: 7.54
--
compound: FC(F)(F)Oc1ccc(Oc2nc(-c3cccnc3)ncc2NC[C@@H]2CCCN2)cc1 [Cpd 11]
observed-value: 8.30
